This section presents compounds with their documented pest or weed control at 125 g/ha values.
- Test system: giant foxtail (Setaria faberii)
- Assay name: Test A postemergence
- Format: in vivo
- Details: Setaria faberi, post-emergence, 240 h, 125 g ai/ha, postemergence, visual injury rating after approximately 10 d; read-out: Foxtail, Giant plant response rating (0 to 100 scale, 0 no effect, 100 complete control)
Give your result in % as a bare value.

Entry under review: Cc1cc(F)cc([C@H]2CN(C)C(=O)[C@@H]2C(=O)Nc2ccccc2F)c1 . Reported pest or weed control at 125 g/ha? 80

Entry under review: CSc1ccccc1NC(=O)[C@H]1C(=O)N(C)C[C@@H]1c1cccc(COC(F)F)c1 . Reported pest or weed control at 125 g/ha? 40

Entry under review: CC(C)c1cccc([C@H]2CN(C)C(=O)[C@@H]2C(=O)Nc2ccccc2F)c1 . Reported pest or weed control at 125 g/ha? 90

Entry under review: CN1C[C@H](c2cccc(C3CC3)c2)[C@@H](C(=O)Nc2ccc(F)cc2F)C1=O . Reported pest or weed control at 125 g/ha? 90

Entry under review: CN1C[C@H](c2ccc(C(F)F)cc2)[C@@H](C(=O)Nc2ccccc2F)C1=O . Reported pest or weed control at 125 g/ha? 90

Entry under review: Cc1cc(F)cc([C@H]2CN(C)C(=O)[C@@H]2C(=O)Nc2cccc(F)c2F)c1 . Reported pest or weed control at 125 g/ha? 90

Entry under review: CN1CC(c2cccc(I)c2)C(C(=O)Nc2ccccc2F)C1=O (centres unmarked) . Reported pest or weed control at 125 g/ha? 90

Entry under review: COc1ccc([C@H]2CN(C)C(=O)[C@@H]2C(=O)Nc2ccccc2F)cc1OC . Reported pest or weed control at 125 g/ha? 80

Entry under review: COc1c(F)ccc([C@H]2CNC(=O)[C@@H]2C(=O)Nc2ccc(F)c(F)c2F)c1Cl . Reported pest or weed control at 125 g/ha? 70

Entry under review: COc1ccc([C@H]2CN(C)C(=O)[C@@H]2C(=O)Nc2cccc(F)c2F)cc1OC . Reported pest or weed control at 125 g/ha? 90

Entry under review: CCOc1ccc([C@H]2CNC(=O)[C@@H]2C(=O)Nc2ccc(F)cc2F)cc1 . Reported pest or weed control at 125 g/ha? 30

Entry under review: Cc1cc(F)cc([C@H]2CNC(=O)[C@@H]2C(=O)Nc2ccc(F)c(F)c2F)c1 . Reported pest or weed control at 125 g/ha? 70

Entry under review: O=C1NC[C@H](c2ccc(F)c(OC(F)(F)C(F)(F)Br)c2)[C@H]1C(=O)Nc1cccc(F)c1F (racemic) . Reported pest or weed control at 125 g/ha? 70

Entry under review: CSc1ccccc1NC(=O)[C@H]1C(=O)N(C)C[C@@H]1c1cc(F)c(F)c(F)c1 . Reported pest or weed control at 125 g/ha? 70
